# Subject of test: Ribonuclease P protein component (Staphylococcus aureus, UniProt P0A0H5)
# Sequence (P0A0H5 whole entry): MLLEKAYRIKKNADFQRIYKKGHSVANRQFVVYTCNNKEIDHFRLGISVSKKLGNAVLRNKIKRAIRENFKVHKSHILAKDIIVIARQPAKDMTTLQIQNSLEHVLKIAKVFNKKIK
# Assay summary: Inhibition of Staphylococcus aureus RnpA-mediated mRNA degradation after 15 to 30 mins by ethidium bromide staining based agarose gel electrophoresis
pIC50: −log10 of the molar value.
Readout: pIC50

Consider the compound `CC(C)c1ccc(OCC(=O)NNC(=S)NC(=O)c2ccno2)cc1` and give its measured pIC50.
< 3.30
